The measurements presented in this section are drawn from patent US7893074B2.

molecular target: UniProt:P08069; test: Cellular Capture ELISA of IGF-I induced autophosphorylation of the IGF-IR; conditions: read-out: IGF-1R IC50
Sequence (P08069 31-1367): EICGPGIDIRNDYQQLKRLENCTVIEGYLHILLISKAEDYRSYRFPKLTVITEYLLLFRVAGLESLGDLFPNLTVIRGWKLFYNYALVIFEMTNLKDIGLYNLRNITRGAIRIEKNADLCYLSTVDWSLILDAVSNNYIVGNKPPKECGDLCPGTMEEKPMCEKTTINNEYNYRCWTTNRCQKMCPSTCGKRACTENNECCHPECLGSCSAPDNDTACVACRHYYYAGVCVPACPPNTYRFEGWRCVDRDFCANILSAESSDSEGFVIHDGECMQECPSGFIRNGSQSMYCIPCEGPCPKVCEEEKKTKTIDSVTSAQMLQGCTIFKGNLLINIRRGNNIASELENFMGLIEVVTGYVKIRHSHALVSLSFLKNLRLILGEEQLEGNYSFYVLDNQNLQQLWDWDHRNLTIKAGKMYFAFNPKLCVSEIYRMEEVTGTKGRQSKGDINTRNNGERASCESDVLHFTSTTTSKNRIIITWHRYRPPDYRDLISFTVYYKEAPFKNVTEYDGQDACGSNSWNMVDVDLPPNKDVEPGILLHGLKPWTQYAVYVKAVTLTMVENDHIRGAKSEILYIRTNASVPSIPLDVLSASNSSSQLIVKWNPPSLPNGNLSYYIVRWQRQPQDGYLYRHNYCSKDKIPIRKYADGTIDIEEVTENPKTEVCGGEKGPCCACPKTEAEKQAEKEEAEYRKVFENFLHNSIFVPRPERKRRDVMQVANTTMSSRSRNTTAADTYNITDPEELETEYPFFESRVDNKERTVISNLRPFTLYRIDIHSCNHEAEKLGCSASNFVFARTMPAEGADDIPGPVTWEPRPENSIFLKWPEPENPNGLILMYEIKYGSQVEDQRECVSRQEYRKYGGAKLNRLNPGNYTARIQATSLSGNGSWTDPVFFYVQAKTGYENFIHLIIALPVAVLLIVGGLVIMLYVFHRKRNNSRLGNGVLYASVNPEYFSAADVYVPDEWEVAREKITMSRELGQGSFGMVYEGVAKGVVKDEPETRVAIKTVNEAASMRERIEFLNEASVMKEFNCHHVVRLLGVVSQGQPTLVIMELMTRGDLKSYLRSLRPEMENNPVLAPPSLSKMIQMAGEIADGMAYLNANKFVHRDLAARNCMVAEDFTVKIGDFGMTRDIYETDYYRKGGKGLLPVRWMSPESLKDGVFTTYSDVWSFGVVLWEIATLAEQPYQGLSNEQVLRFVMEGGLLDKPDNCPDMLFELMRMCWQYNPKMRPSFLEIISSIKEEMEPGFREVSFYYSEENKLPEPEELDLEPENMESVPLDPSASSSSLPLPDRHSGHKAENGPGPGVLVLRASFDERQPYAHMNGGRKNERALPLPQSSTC
Measurement name: IC50 (nM)

COc1cc(OC2CCN(C)CC2)ccc1Nc1ncc(Cl)c(Nc2ccccc2S(=O)(=O)NC2CCCC2)n1 [Example 25-2]: 640
CNS(=O)(=O)c1ccccc1Nc1nc(Nc2cc(OCCN3CCOCC3)ccc2OC)ncc1Br [Example 3-35]: 3550

I. CNS(=O)(=O)c1ccccc1Nc1nc(Nc2ccc(N3CCNCC3)cc2OC)ncc1Cl [Example 20-7]
II. COc1cc(N2CCOCC2)ccc1Nc1ncc(Cl)c(Nc2ccccc2S(=O)(=O)CC(C)C)n1 [Example 32-2]
III. CCC(CC)NS(=O)(=O)c1ccccc1Nc1nc(Nc2ccc(N3CCN(C)CC3)cc2OC)ncc1Cl [Example 23-2]
Task for the reader: rank each entry by its IC50, from the minimum upward. Thanks in advance for listing the labels in the requested order.
II, I, III
(II: 120 nM, I: 380 nM, III: 800 nM)

P. CNC(=O)c1ccccc1Nc1nc(Nc2ccc(N3CCC(N4CCN(C)CC4)CC3)cc2OC)ncc1Cl [Example 7-14]
Q. CNS(=O)(=O)c1ccccc1Nc1nc(Nc2ccc(F)cc2OC)ncc1Br [Example 3-80]
R. CNC(=O)c1ccccc1Nc1nc(Nc2ccc(N3CCC(NC)C3)cc2OC)ncc1Cl (stereo not shown) [Example 7-12]
S. CCCS(=O)(=O)c1ccccc1Nc1nc(Nc2ccc(N3CCC(O)CC3)cc2OC)ncc1Cl [Example 26-4]
Ordering criterion: IC50; begin with the maximum. List labels; respect the requested ordering.
Q, S, R, P

P. CCCS(=O)(=O)c1ccccc1Nc1nc(Nc2ccc(N3CCN(C(C)=O)CC3)cc2OC)ncc1Cl [Example 26-2]
Q. CCNC(=O)c1ccccc1Nc1nc(Nc2ccc(N3CCOCC3)cc2OC)ncc1Cl [Example 9-5]
R. COc1cc(N2CCN(CCO)CC2)ccc1Nc1ncc(Cl)c(Nc2ccccc2S(=O)(=O)C(C)C)n1 [Example 28-2]
Arrange the 3 molecules from largest to smallest IC50. When ranking, write the labels in the order the request describes.
R, Q, P
(R: 3710 nM, Q: 600 nM, P: 390 nM)

---

target: Focal Adhesion Kinase (FAK) (Homo sapiens, UniProt Q05397); assay: FAK assay system (Focal Adhesion Kinase inhibition); assay type: biochemical; conditions: read-out: FAK IC50
Sequence (Q05397 384-706): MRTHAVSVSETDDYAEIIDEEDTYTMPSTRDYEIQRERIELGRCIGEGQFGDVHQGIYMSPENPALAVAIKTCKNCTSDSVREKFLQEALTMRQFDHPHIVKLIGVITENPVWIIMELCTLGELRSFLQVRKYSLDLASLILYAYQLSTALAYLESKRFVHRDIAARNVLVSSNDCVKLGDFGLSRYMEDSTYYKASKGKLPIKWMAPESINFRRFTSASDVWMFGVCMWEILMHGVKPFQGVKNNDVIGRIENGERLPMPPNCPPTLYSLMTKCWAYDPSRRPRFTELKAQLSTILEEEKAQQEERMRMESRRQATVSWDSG
Measurement name: IC50 (nM)

CNC(=O)c1ccccc1Nc1nc(Nc2ccc(N3CCC(NC)C3)cc2OC)ncc1Cl (stereo not shown) [Example 7-12]: 1.9
COc1cc(NCC(C)(C)CN(C)C)ccc1Nc1ncc(Cl)c(Nc2ccccc2S(=O)(=O)NC(C)C)n1 [Example 19-10]: 1.3
CNS(=O)(=O)c1ccccc1Nc1nc(Nc2ccc(F)cc2Cl)ncc1Br [Example 3-37]: 39

a. COc1cc(N2CCN(C3CCN(C)CC3)CC2)ccc1Nc1ncc(Cl)c(Nc2ccccc2S(=O)(=O)C(C)C)n1 [Example 28-24]
b. CCCS(=O)(=O)c1ccccc1Nc1nc(Nc2ccc(N3CCN(C(C)C)CC3)cc2OC)ncc1Cl [Example 26-23]
c. COc1cc(N2CCOCC2)ccc1Nc1ncc(Cl)c(Nc2ccccc2S(=O)(=O)CC(C)C)n1 [Example 32-2]
d. CNC1CCN(c2ccc(Nc3ncc(Cl)c(Nc4ccccc4S(=O)(=O)NC)n3)c(OC)c2)C1 (stereo not shown) [Example 20-17]
Given 4 compounds, produce a descending ranking by IC50. Write the labels out in the order the request specifies.
c, a, d, b

a. CCC(CC)NS(=O)(=O)c1ccccc1Nc1nc(Nc2ccc(OC3CCN(C)CC3)cc2OC)ncc1Cl [Example 23-1]
b. CNS(=O)(=O)c1ccccc1Nc1nc(Nc2ccc(N3CCOCC3)cc2OC)ncc1Br [Example 3-19]
Of the two listed items, which has the higher IC50? First: a Second: b To answer, give the label that identifies your chosen option.
b
(b: 6.8 nM, a: 3.4 nM)

I. COc1cc(N2CCN(C(C)C)CC2)ccc1Nc1ncc(Cl)c(Nc2ccccc2S(=O)(=O)C(C)C)n1 [Example 28-14]
II. COc1cc(F)ccc1Nc1ncc(Cl)c(Nc2ccccc2S(C)(=O)=O)n1 [Example 31-1]
III. COc1cc(OC2CCN(C)CC2)ccc1Nc1ncc(Cl)c(Nc2ccccc2S(=O)(=O)NC2CCC2)n1 [Example 24-2]
IV. CCCS(=O)(=O)c1ccccc1Nc1nc(Nc2ccc(N3CCCC(C(N)=O)C3)cc2OC)ncc1Cl (stereo not shown) [Example 26-14]
Arrange the 4 compounds by rising IC50, starting with the smallest. Return the labels ranked in the requested order, please.
III, I, IV, II
(III: 2.1 nM, I: 3 nM, IV: 5 nM, II: 30 nM)

---

biological target: UniProt:P34152; experiment: Phos IC50 (phosphorylation); assay type: cell-based
Measurement name: IC50 (nM)

CNS(=O)(=O)c1ccccc1Nc1nc(Nc2cc(OC3CCN(C(C)=O)CC3)ccc2OC)ncc1Br: 500
COc1cc(N2CCC[C@H]2CN2CCCC2)ccc1Nc1ncc(Cl)c(Nc2ccccc2S(=O)(=O)NC(C)C)n1: 700
CNS(=O)(=O)c1ccccc1Nc1nc(Nc2cc(F)ccc2OC)ncc1Cl: 490
CCCCS(=O)(=O)c1ccccc1Nc1nc(Nc2ccc(N3CCOCC3)cc2OC)ncc1Cl: 100
CCC(C)NS(=O)(=O)c1ccccc1Nc1nc(Nc2ccc(OCCN3CCOCC3)cc2OC)ncc1Cl (stereo not shown): 50
CNS(=O)(=O)c1ccccc1Nc1nc(Nc2cc(C(=O)N3CCNCC3)ccc2C)ncc1Br: 3500
CNC(=O)c1ccccc1Nc1nc(Nc2ccc(N3CCC(N4CCN(C)CC4)CC3)cc2OC)ncc1Cl: 300
CCOc1ccc(-c2ccc(OC)cc2)cc1Nc1ncc(Br)c(Nc2ccccc2S(=O)(=O)NC)n1: 600
COc1cc(N2CCCC(C(N)=O)C2)ccc1Nc1ncc(Cl)c(Nc2ccccc2S(=O)(=O)C(C)C)n1 (stereo not shown): 300
CNS(=O)(=O)c1ccccc1Nc1nc(Nc2cc(N3CCCCC3)ccc2C)ncc1Br: 790

a. CNS(=O)(=O)c1ccccc1Nc1nc(Nc2cc(OC)ccc2OCCOC)ncc1Br
b. CCC(CC)NS(=O)(=O)c1ccccc1Nc1nc(Nc2ccc(OCCN3CCOCC3)cc2OC)ncc1Cl
Please indicate which entry, a or b , has the lower recorded IC50 value. Mark your selection by writing its label.
b

a. COc1cc(-n2cncn2)ccc1Nc1ncc(Cl)c(Nc2ccccc2S(=O)(=O)C2CC2)n1
b. COc1cc(OC)c(OC)cc1Nc1ncc(Cl)c(Nc2ccccc2S(=O)(=O)C(C)C)n1
c. CCS(=O)(=O)c1ccccc1Nc1nc(Nc2ccc(N3CCC[C@@H](C(N)=O)C3)cc2OC)ncc1Cl
Please give the order of these compounds when sorted by IC50, largest value leading. Write out the labels following the order that was asked for.
b, c, a

A. CNS(=O)(=O)c1ccccc1Nc1nc(Nc2cc(N3CCOCC3)ccc2C)ncc1Br
B. COc1cc(N2CCC(N3CCCCC3)CC2)ccc1Nc1ncc(Cl)c(Nc2ccccc2S(=O)(=O)C(C)C)n1
C. COc1cc(N2CCOCC2)ccc1Nc1ncc(Cl)c(Nc2ccccc2S(=O)(=O)C2CCCCC2)n1
Rank order required: IC50, descending. List each label, following the requested order.
B, A, C
(B: 400 nM, A: 220 nM, C: 80 nM)

I. CNS(=O)(=O)c1ccccc1Nc1nc(Nc2cc(OCCCN3CCOCC3)ccc2OC)ncc1Br
II. CCOCCOC1CCN(c2ccc(Nc3ncc(Cl)c(Nc4ccccc4C(=O)NC)n3)c(OC)c2)CC1
III. CCCS(=O)(=O)c1ccccc1Nc1nc(Nc2ccc(OC3CCN(C)CC3)cc2OC)ncc1Cl
IV. CNS(=O)(=O)c1ccccc1Nc1nc(Nc2cc(-c3ccc(OC)cc3)ccc2C)ncc1Br
Let's sort these by IC50, smallest first. Go ahead? The response must list the labels following the requested ordering.
I, III, IV, II

---

molecular target: FAK (Mus musculus, UniProt P34152); test: Phos IC50 (phosphorylation)
Sequence (P34152 2-1052): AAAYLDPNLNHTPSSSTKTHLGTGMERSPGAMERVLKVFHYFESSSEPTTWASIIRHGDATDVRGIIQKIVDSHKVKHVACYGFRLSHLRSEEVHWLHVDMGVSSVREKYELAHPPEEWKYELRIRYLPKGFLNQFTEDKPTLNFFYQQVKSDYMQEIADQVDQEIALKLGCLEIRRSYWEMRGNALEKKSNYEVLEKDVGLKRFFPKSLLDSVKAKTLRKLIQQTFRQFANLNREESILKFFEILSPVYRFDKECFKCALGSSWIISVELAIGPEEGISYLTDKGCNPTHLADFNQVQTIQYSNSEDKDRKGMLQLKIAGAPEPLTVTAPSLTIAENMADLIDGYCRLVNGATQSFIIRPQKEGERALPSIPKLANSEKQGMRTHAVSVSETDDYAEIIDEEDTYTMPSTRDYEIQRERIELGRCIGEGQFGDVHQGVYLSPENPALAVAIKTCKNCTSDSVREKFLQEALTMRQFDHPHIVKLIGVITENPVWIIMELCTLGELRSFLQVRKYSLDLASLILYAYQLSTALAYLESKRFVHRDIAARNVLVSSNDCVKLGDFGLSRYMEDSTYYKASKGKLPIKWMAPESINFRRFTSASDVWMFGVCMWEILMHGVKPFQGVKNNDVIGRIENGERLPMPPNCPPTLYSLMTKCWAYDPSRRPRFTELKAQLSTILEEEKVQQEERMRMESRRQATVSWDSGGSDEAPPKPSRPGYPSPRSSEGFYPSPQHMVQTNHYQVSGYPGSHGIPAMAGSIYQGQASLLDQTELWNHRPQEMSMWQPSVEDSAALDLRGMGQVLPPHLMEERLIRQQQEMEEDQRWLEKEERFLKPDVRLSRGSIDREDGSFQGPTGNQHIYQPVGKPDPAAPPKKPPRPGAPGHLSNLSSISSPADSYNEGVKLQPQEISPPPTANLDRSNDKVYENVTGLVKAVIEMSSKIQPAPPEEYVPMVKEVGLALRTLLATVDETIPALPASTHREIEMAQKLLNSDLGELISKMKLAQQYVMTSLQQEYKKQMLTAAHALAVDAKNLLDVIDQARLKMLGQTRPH
pIC50: −log10 of the molar value.
Measurement name: pIC50

Worked cases, pIC50 given:
COc1cc(N2CCN(C3CCN(C)CC3)CC2)ccc1Nc1ncc(Cl)c(Nc2ccccc2S(=O)(=O)C(C)C)n1: 6.70
CCC(CC)S(=O)(=O)c1ccccc1Nc1nc(Nc2ccc(N3CCC(N4CCCCC4)CC3)cc2OC)ncc1Cl: 6.15
COCC1CCN(c2ccc(Nc3ncc(Cl)c(Nc4ccccc4S(=O)(=O)C(C)C)n3)c(OC)c2)CC1: 5.52
CNS(=O)(=O)c1ccccc1Nc1nc(Nc2cc(OC)ccc2OC)ncc1[N+](=O)[O-]: 6.15
CNC(=O)c1ccccc1Nc1nc(Nc2ccc(N3CCC(OCCOC)CC3)cc2OC)ncc1Cl: 6.00

A. CNS(=O)(=O)c1ccccc1Nc1nc(Nc2ccc(-n3ccnc3)cc2OC)ncc1Br
B. CNS(=O)(=O)c1ccccc1Nc1nc(Nc2ccc(OCCCN3CCOCC3)cc2OC)ncc1Br
C. COc1cc(N2CCOCC2)ccc1Nc1ncc(Cl)c(Nc2ccccc2S(=O)(=O)C2CC2)n1
D. COc1cc(N2CCC(C(N)=O)CC2)ccc1Nc1ncc(Cl)c(Nc2ccccc2S(=O)(=O)C(C)C)n1
E. CCC(CC)NS(=O)(=O)c1ccccc1Nc1nc(Nc2ccc(N3CCC(NC)C3)cc2OC)ncc1Cl (stereo not shown)
With regard to pIC50, arrange the entries in ascending order, please. The response must list the labels following the requested ordering.
E, D, C, A, B

a. CNS(=O)(=O)c1ccccc1Nc1nc(Nc2cc(-c3ccncc3)ccc2OC)ncc1Br
b. CNS(=O)(=O)c1ccccc1Nc1nc(Nc2cccc3c2CCCC3)ncc1Br
Form field 'greater pIC50' accepts a or b ; which applies? Give the label under which the chosen entry appears.
a
(a: 7.10, b: 5.96)
